Tested on: Z-138 Mantle cell lymphoma
protocol: In vitro viability assay, CellTiterGlo
Assay type: cell-based
particulars: Homo sapiens; Z-138, CellTiterGlo, 72 h; read-out: EC50 (μM) Ab
recordedMetric: EC50

Entry under test: Nc1nc(Cl)nc2c1ncn2[C@H]1C[C@H](O)[C@@H](CO)O1 [Cladribine, cladribine, reference compound] . Its EC50 was < 0.019 µM

----------
Test system: HEL92.1.7 Erythroleukaemia
protocol: In vitro viability assay, CellTiterGlo
Format: cell-based
particulars: Homo sapiens, HEL 92.1.7; HEL92.1.7, CellTiterGlo, 72 h; read-out: EC50 (μM) Ab
recordedMetric: EC50

Entry under test: Nc1nc(Cl)nc2c1ncn2[C@H]1C[C@H](O)[C@@H](CO)O1 [Cladribine, cladribine, reference compound] . Its EC50 was < 0.019 µM

----------
System: HL-60 Promyelocytic leukaemia
protocol: In vitro viability assay, CellTiterGlo
Type: cell-based
particulars: HL-60, CellTiterGlo, 72 h
recordedMetric: Top Inhibition (%)
Answers are plain numbers, in %.

C[C@H](NP(=O)(Oc1cccc2ccccc12)OC1C[C@H](n2cnc3c(N)nc(Cl)nc32)O[C@@H]1CO)C(=O)OC1CCCCC1 (stereo partly drawn) [Compound 8]	96
C[C@H](NP(=O)(Oc1ccccc1)OC1C[C@H](n2cnc3c(N)nc(Cl)nc32)O[C@@H]1CO)C(=O)OC1CCCCC1 (stereo partly drawn) [Compound 9]	87.7
C[C@H](NP(=O)(Oc1cccc2ccccc12)OC1C[C@H](n2cnc3c(N)nc(Cl)nc32)O[C@@H]1CO)C(=O)OCC(C)(C)C (stereo partly drawn) [Compound 6]	96
C[C@H](NP(=O)(Oc1ccccc1)OC1C[C@H](n2cnc3c(N)nc(Cl)nc32)O[C@@H]1CO)C(=O)OCC(C)(C)C (stereo partly drawn) [Compound 10]	87.7

Field: Top Inhibition (%). Fill in for each record below.
1. Nc1nc(Cl)nc2c1ncn2[C@H]1C[C@H](O)[C@@H](CO)O1 [Cladribine, cladribine, reference compound]
2. CCCCCOC(=O)[C@H](CC(C)C)NP(=O)(Oc1cccc2ccccc12)OC1C[C@H](n2cnc3c(N)nc(Cl)nc32)O[C@@H]1CO (stereo partly drawn) [Compound 7]

Solution:
1. 85
2. 98
